# ASSAY SYSTEM: Short transient receptor potential channel 4 (Mus musculus) (UniProt Q9QUQ5)
# Sequence (Q9QUQ5 whole entry, looked up): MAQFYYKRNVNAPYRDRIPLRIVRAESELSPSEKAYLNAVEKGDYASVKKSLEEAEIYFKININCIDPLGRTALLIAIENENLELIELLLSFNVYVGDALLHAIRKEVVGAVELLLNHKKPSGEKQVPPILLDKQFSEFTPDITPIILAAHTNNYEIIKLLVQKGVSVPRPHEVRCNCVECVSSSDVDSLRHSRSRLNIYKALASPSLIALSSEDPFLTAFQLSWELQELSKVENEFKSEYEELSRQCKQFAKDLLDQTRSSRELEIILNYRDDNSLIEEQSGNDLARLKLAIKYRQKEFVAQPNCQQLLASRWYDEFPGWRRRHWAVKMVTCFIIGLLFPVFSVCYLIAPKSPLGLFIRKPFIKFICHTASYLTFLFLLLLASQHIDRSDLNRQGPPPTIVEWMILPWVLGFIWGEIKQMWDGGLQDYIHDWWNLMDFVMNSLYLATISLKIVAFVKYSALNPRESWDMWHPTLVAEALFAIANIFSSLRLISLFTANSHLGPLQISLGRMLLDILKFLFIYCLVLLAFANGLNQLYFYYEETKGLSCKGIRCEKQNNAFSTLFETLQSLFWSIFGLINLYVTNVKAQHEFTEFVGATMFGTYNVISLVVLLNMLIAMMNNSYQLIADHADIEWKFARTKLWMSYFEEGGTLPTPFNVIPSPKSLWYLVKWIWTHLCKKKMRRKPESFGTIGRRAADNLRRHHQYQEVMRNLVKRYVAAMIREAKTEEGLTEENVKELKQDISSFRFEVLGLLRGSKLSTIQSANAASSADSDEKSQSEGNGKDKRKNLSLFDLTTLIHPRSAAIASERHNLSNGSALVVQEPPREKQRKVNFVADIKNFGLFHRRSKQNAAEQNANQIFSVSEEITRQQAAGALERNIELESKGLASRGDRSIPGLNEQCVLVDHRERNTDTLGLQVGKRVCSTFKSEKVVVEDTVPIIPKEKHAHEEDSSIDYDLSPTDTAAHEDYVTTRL
# EXPERIMENTAL DETAILS: activators of mouse TRPC4 channel, primary screen, Fluo4 calcium, HEK293 TRPC4beta/mu-opioid cells (AID 2237)
# ASSAY SETUP: Fluo4 calcium fluorescence, at 10 µM
Among all 310,000 compounds or so, about 1,500 (0.48%) were called active.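 The calls were made as follows: active = B-score above 5 SD of library B-scores, and initial fluorescence ratio not above library mean plus 5 SD; inactive = the rest.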 The sample as a whole holds a higher share of actives than the screen did.
Would you mind answering with one of these outcomes? YES for active, NO for inactive

For orientation, consider the following solved cases.
{"columns": ["MOLECULE", "QUALITATIVE LABEL"],
 "data": [
  ["COc1ccc(NC(=O)c2cc([N+](=O)[O-])ccc2NC(=O)CNC2CCCCC2C)c(OC)c1 (stereo not given)", "NO"],
  ["Cc1ccc(C(=O)NC23CC4CC(CC(C4)C2)C3)c(Cl)c1", "NO"],
  ["CCOc1c2ccc(C(=O)NC3CCCc4ccccc43)cc2nn1CC (stereo not given)", "NO"],
  ["CCCC(C(=O)NC1CCCC1)N(C(=O)Cn1nnc(-c2ccc(C)o2)n1)c1cccc(O)c1 (stereo not given)", "NO"]
]}

We next turn to a different molecule, shown below.
IN: Returns: the outcome recorded for CCCCC(=O)NNC(=S)NC(=O)C(c1ccccc1)c1ccccc1 in this assay.
OUT: YES

* * *

# ASSAY SYSTEM: Short transient receptor potential channel 4 (Mus musculus) (UniProt Q9QUQ5)
# EXPERIMENTAL DETAILS: activators of mouse TRPC4 channel, primary screen, Fluo4 calcium, HEK293 TRPC4beta/mu-opioid cells (AID 2237)
# ASSAY SETUP: Fluo4 calcium fluorescence, at 10 µM
Hit rate of the full screen: of about 310,000 compounds, about 1,500 (0.48%) were called active.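 How the source made its calls: active means B-score above 5 SD of library B-scores, and initial fluorescence ratio not above library mean plus 5 SD; inactive means the rest.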 This excerpt belongs to a sample that is enriched for actives.
Would you mind answering with one of these outcomes? active, inactive

For orientation, consider the following solved cases.
{"columns": ["MOLECULE", "QUALITATIVE LABEL"],
 "data": [
  ["Cc1ccnc(NC(=O)CCNS(=O)(=O)c2ccc(C)c(C)c2)c1", "inactive"],
  ["Clc1ccc(-c2cc(-c3ccccn3)on2)c(Cl)c1", "inactive"],
  ["CC12CCC(C(=O)N(NC(=O)c3ccccc3O)C1=O)C2(C)C (configuration not stated)", "inactive"],
  ["CN(C)C(=O)N1CCNCC1", "inactive"],
  ["CS(=O)(=O)N(CC(=O)Nc1ccc(Cl)c(Cl)c1)C1CCCCC1", "inactive"]
]}

We next turn to a different molecule, shown below.
IN: Returns: the outcome recorded for CCCN(CCC)CCCNC(=O)CNC(=O)c1nn(-c2ccc(OC)cc2)c(=O)c2ccccc12 in this assay.
OUT: active

* * *

# ASSAY SYSTEM: Short transient receptor potential channel 4 (Mus musculus) (UniProt Q9QUQ5)
# EXPERIMENTAL DETAILS: activators of mouse TRPC4 channel, primary screen, Fluo4 calcium, HEK293 TRPC4beta/mu-opioid cells (AID 2237)
# ASSAY SETUP: Fluo4 calcium fluorescence, at 10 µM
Screen size: about 310,000 compounds; about 1,500 (0.48%) were called active.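 How the source made its calls: active means B-score above 5 SD of library B-scores, and initial fluorescence ratio not above library mean plus 5 SD; inactive means the rest.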 For the sample, actives were picked, then their nearest neighbours and some compounds at random.
Would you mind answering with one of these outcomes? active, inactive

For orientation, consider the following solved cases.
{"columns": ["COMPOUND", "QUALITATIVE LABEL"],
 "data": [
  ["CCCc1ccc(OCCNC(=O)c2ccco2)cc1", "inactive"],
  ["OCCNCCCCOc1ccccc1F", "inactive"],
  ["Cc1ccc(CN2CCN(c3ccccc3Cl)CC2)o1", "inactive"]
]}

IN: Returns: the outcome recorded for COc1ccc(N2CCN(C(=O)CCNC(=O)c3ccc(Br)cc3)CC2)cc1 in this assay.
OUT: inactive

IN: And the next one, Cc1ccc(CC2CC(=O)N(c3cc(C)ccc3C)C2=O)cc1 (configuration not stated) ?
OUT: inactive

IN: And the next one, COc1ccc(-c2nn(-c3ccccc3)cc2C(=O)Nc2nc(CC(C)=O)ns2)cc1 ?
OUT: inactive

* * *

# ASSAY SYSTEM: Short transient receptor potential channel 4 (Mus musculus)
# EXPERIMENTAL DETAILS: activators of mouse TRPC4 channel, primary screen, Fluo4 calcium, HEK293 TRPC4beta/mu-opioid cells (AID 2237)
# ASSAY SETUP: Fluo4 calcium fluorescence, at 10 µM
Hit rate of the full screen: of about 310,000 compounds, about 1,500 (0.48%) were called active.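 How the source made its calls: active means B-score above 5 SD of library B-scores, and initial fluorescence ratio not above library mean plus 5 SD; inactive means the rest.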 The sample holds actives, similar compounds and a random draw of the others, so the mix is not that of the screen.
Would you mind answering with one of these outcomes? active, inactive

For orientation, consider the following solved cases.
{"columns": ["COMPOUND", "QUALITATIVE LABEL"],
 "data": [
  ["Cc1ccc(S(=O)(=O)N(Cc2cc3ccccc3[nH]c2=O)CC2CCCO2)cc1 (centres undefined)", "inactive"],
  ["Cc1nc(CNS(=O)(=O)c2cccnc2)cs1", "inactive"],
  ["CC(=O)Nc1nc2ccccc2n1Cc1ccc(C)cc1", "inactive"],
  ["Cc1[nH]c2ccccc2c1-c1ccc(Cl)nn1", "inactive"],
  ["C#CCOc1ccc(/C=C2/C(=O)ON=C2C)cc1OCC", "inactive"],
  ["CC1CCCN(S(=O)(=O)c2ccc(C(=O)Nc3nnc(-c4ccncc4)o3)cc2)C1 (centres undefined)", "inactive"],
  ["CC(NC(=O)C(C)(C)C)C(c1cccs1)N1CCN(Cc2ccccc2)CC1 (centres undefined)", "inactive"],
  ["O=S(=O)(c1ccccc1)N1CCC(c2ccccc2)CC1", "inactive"],
  ["c1ccc(C2CCC(N3CCC(N4CCCCC4)CC3)CC2)cc1 (centres undefined)", "active"],
  ["CCc1cccc(C)c1NS(=O)(=O)c1cc(Br)cnc1N", "inactive"]
]}

IN: Returns: the outcome recorded for CC(=O)c1nc2ccccc2n1Cc1ccccc1 in this assay.
OUT: inactive

IN: And the next one, COc1ccc(Cl)cc1NC(=O)[C@@H]1CCCN1C(=O)c1cccs1 ?
OUT: inactive

IN: And the next one, CCCc1nc2c(C)cc(-c3nc4ccccc4n3C)cc2n1Cc1ccc(-c2ccccc2C(=O)O)cc1 ?
OUT: active

IN: And the next one, CCCCN(CC)CCCNC(=O)CS(=O)(=O)Cc1nc(-c2cccc(OC)c2)oc1C ?
OUT: active

* * *

# ASSAY SYSTEM: Short transient receptor potential channel 4 (Mus musculus) (UniProt Q9QUQ5)
# EXPERIMENTAL DETAILS: activators of mouse TRPC4 channel, primary screen, Fluo4 calcium, HEK293 TRPC4beta/mu-opioid cells (AID 2237)
# ASSAY SETUP: Fluo4 calcium fluorescence, at 10 µM
In all, about 310,000 compounds went through this assay and about 1,500 (0.48%) were called active.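 Rule for the calls: active = B-score above 5 SD of library B-scores, and initial fluorescence ratio not above library mean plus 5 SD; inactive = the rest.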 The entries come from a sample that favours actives as a whole.
Would you mind answering with one of these outcomes? active, inactive

For orientation, consider the following solved cases.
{"columns": ["COMPOUND", "QUALITATIVE LABEL"],
 "data": [
  ["CO/N=C/c1cn(-c2ccc(Cl)cc2)nn1", "inactive"],
  ["COc1cc(OC)c(-n2cc(-c3ccc(Cl)cc3)[nH]c2=O)cc1Cl", "active"]
]}

We next turn to a different compound, shown below.
IN: Returns: the outcome recorded for COc1cc(CN2CCCC(C(=O)c3ccc(SC)cc3)C2)cc(Cl)c1O (stereo not drawn) in this assay.
OUT: inactive

* * *

# ASSAY SYSTEM: Short transient receptor potential channel 4 (Mus musculus) (UniProt Q9QUQ5)
# EXPERIMENTAL DETAILS: activators of mouse TRPC4 channel, primary screen, Fluo4 calcium, HEK293 TRPC4beta/mu-opioid cells (AID 2237)
# ASSAY SETUP: Fluo4 calcium fluorescence, at 10 µM
The campaign covered roughly 310,000 compounds. About 1,500 (0.48%) were called active.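 Rule for the calls: active = B-score above 5 SD of library B-scores, and initial fluorescence ratio not above library mean plus 5 SD; inactive = the rest.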 The list comes from a sample in which actives are over-represented; it also holds close analogues and randomly drawn compounds.
Would you mind answering with one of these outcomes? class 1 = active, class 0 = inactive

For orientation, consider the following solved cases.
{"columns": ["COMPOUND", "QUALITATIVE LABEL"],
 "data": [
  ["CCOC(=O)c1cc(C#N)c(N2CCCCC2)nc1-c1ccccc1", "class 0"],
  ["CCCc1ccc(OCC(O)CN2CCN(CCO)CC2)cc1 (stereo not drawn)", "class 0"],
  ["CCN1C(=O)[C@H]2[C@@H](c3ccc(-c4ccc(OC)cc4)cc3)N[C@@](Cc3ccccc3)(C(=O)OC)[C@H]2C1=O", "class 0"],
  ["COC(=O)C1CCCCN1C(=O)c1ccc(OC2CCN(C(C)=O)CC2)c(OC)c1 (stereo not drawn)", "class 0"]
]}

IN: Returns: the outcome recorded for Cc1[nH]n(-c2cccc(Cl)c2)c(=O)c1/C=N/n1c(C)nc2ccccc2c1=O in this assay.
OUT: class 0

IN: And the next one, CC(=O)c1ccc(S(=O)(=O)Nc2ccc(-c3ccc4nncn4n3)cc2)cc1 ?
OUT: class 0
